Test: Plasma clearance in Rattus norvegicus (rat) at 2 mg/kg, iv
Type: ADME, organism-based
Set-up: dose 2 mg/kg, route intravenous

{"columns": ["record-smiles", "clearance (mL/min/kg)"],
 "data": [
  ["COc1cc(C)ccc1S(=O)(=O)NC(=O)[C@@H](c1ccc2c(c1)OCO2)c1cn(C)c2cc(CO)ccc12", 1.7]
]}

====

Test: Permeability of the compound across Homo sapiens (human) Caco2 cells
Type: ADME, cell-based
Conditions: Caco-2, read-out: permeability
measurement-type: Papp (×10⁻⁶ cm/s)

{"columns": ["compound", "measurement-type", "qual", "assay-result"],
 "data": [
  ["Cn1cc(C(C(=O)NS(=O)(=O)c2ccc(CC(=O)O)cc2)c2ccc3c(c2)OCO3)c2ccc(C(N)=O)cc21 (racemic)", "Papp", "<", 0.5],
  ["COc1cc(C)ccc1S(=O)(=O)NC(=O)C(c1ccc2c(c1)OCO2)c1cn(C)c2cc(F)ccc12 (racemic)", "Papp", "=", 5],
  ["COc1cc(C)ccc1S(=O)(=O)NC(=O)C(c1ccc2c(c1)OCO2)c1cn(C)c2cc(CO)ccc12 (centres undefined)", "Papp", "=", 1.2],
  ["COc1cc(C)ccc1S(=O)(=O)NC(=O)C(c1ccc2c(c1)OCO2)c1cn(C)c2cc(C(N)=O)ccc12 (racemic)", "Papp", "=", 1.6]
]}
